# Tested on: HT-29
# assay-protocol: Inhibition of Wnt signaling in human HT29 cells assessed as inhibition of beta-catenin-mediated Tcf/Lef transcriptional activity after 24 hrs by dual luciferase reporter gene assay relative to control
# Assay type: cell-based
# conditions: HT-29, 24 h
property-name: IC50 (µM)
Kindly provide the numeric value in µM only, without the unit symbol.

Field: example entries. Status: answers known.
[
  {
    "cpd-smiles": "Cc1ccc2nc(-c3ccc([N+](=O)[O-])cc3)cn2c1",
    "property-name": "IC50",
    "observed": 6.2
  },
  {
    "cpd-smiles": "Nc1cc(=O)n(Cc2ccccc2)c(SCc2ccccc2)n1",
    "property-name": "IC50",
    "observed": 54.3
  },
  {
    "cpd-smiles": "Cc1ccc2nc(-c3ccc(NCc4ccccc4)cc3)cn2c1",
    "property-name": "IC50",
    "observed": 11.1
  }
]

Name the recorded IC50 of CCCSc1nc(N)cc(OCc2ccccc2)n1 , assay system HT-29.
22.3

For HT-29, give the measured IC50 of the entry CC(=O)Nc1cc(=O)n(Cc2ccccc2)c(SCc2ccccc2)n1
35.6

====

# Tested on: HT-29
# assay-protocol: Inhibition of Wnt signaling in human HT29 cells assessed as inhibition of beta-catenin-mediated Tcf/Lef transcriptional activity after 24 hrs by dual luciferase reporter gene assay relative to control
# Format: cell-based
# conditions: HT-29, 24 h
property-name: IC50

These solved cases illustrate the format of a correct answer.
[
  {
    "cpd-smiles": "Cc1ccn2cc(-c3ccc(NC(=O)c4ccccc4C(=O)O)cc3)nc2c1",
    "property-name": "IC50",
    "observed": "> 100 µM"
  },
  {
    "cpd-smiles": "Nc1cc(OCc2ccccc2)nc(SCc2ccccc2)n1",
    "property-name": "IC50",
    "observed": "> 100 µM"
  }
]

Quick one: give measured IC50 for CC(=O)Nc1cc(OCC(C)C)nc(SCc2ccccc2)n1
> 100 µM
